Value source: BindingDB's records for doi:10.7270/Q2Q52N1X

# TESTED ON: Solute carrier family 12 member 5 (Homo sapiens, UniProt Q9H2X9)
# Sequence (Q9H2X9 whole entry): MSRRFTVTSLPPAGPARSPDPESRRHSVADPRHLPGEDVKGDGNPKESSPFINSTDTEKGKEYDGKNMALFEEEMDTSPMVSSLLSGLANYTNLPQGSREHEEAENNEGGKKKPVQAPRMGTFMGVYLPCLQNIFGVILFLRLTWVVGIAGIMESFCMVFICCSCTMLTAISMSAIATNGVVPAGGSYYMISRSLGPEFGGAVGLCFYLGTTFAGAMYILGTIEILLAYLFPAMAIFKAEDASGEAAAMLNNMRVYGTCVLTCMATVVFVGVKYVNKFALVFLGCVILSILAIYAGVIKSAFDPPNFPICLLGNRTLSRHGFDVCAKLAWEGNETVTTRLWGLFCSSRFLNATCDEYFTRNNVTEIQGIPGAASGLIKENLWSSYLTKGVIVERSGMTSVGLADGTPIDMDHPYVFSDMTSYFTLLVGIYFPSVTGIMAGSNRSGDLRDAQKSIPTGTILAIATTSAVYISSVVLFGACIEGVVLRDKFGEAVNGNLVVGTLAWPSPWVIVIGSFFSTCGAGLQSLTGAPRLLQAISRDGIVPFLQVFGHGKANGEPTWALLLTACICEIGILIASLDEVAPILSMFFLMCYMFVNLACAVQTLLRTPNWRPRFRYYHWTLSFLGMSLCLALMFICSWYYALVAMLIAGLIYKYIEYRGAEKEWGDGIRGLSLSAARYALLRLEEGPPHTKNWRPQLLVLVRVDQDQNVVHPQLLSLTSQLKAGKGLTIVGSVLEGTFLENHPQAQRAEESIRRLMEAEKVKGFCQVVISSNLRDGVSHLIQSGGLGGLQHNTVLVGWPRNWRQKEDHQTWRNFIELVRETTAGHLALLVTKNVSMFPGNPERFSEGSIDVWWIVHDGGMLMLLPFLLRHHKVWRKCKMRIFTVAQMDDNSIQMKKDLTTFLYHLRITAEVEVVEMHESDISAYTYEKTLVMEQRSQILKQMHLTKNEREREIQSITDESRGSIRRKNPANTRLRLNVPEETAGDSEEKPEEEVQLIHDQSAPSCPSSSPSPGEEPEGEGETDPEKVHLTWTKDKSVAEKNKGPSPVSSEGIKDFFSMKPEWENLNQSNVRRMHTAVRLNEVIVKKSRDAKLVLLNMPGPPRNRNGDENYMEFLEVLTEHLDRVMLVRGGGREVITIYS
# PROTOCOL DETAILS: concentration-response of KCC2 transport modulators – cell-based, HEK293 KCC2, FluoZin-2 fluorescence, dose response (AID 1736)
# CONDITION DETAILS: inactive by the depositor's call
Can you tell me log10 of EC50 for the items I'm about to list?
The base-10 logarithm of EC50, taken with EC50 in µM, is what appears here.

Challenge: I would be grateful if you could share the reported log10 of EC50 for "COc1ccc(S(=O)(=O)N(CCC(=O)O)Cc2ccccc2)cc1" .
Response given: 0.80

Challenge: Moving on to the next compound: "COc1cc(C)c(C)cc1S(=O)(=O)N1CCN(Cc2ccccc2)CC1"
Response given: 1.52

Challenge: Moving on to the next compound: "O=[N+]([O-])c1ccc(NC2CCN(Cc3ccccc3)CC2)c([N+](=O)[O-])c1"
Response given: 0.74

Challenge: Moving on to the next compound: O=C(CN1C(=O)NC(Cc2ccccc2)C1=O)NC(=O)NC1CCCCC1 (centres undefined)
Response given: 1.84

Challenge: Moving on to the next compound: CN1C(C(=O)NCc2ccccc2)CC2Cn3c(nc4cc(Cl)c(Cl)cc43)C21 (centres undefined)
Response given: 1.81

Challenge: Moving on to the next compound: "O=C(Cn1c(-c2ccccc2)noc1=O)N1CCC(Cc2ccccc2)CC1"
Response given: 1.60

Challenge: Moving on to the next compound: "CN(C)S(=O)(=O)N(CC(=O)NCCSCc1ccccc1)c1ccccc1"
Response given: 1.27

Challenge: Moving on to the next compound: "C=CCNC(=O)NC(=O)CSc1nc2cc([N+](=O)[O-])ccc2n1-c1cccc(C(F)(F)F)c1"
Response given: 1.28

Challenge: Moving on to the next compound: "Cc1cccc(N2CCN(C(=O)Cn3ccc4ccccc4c3=O)CC2)c1C"
Response given: 2.41
